Assay: Liver microsomes stability
Format: in vitro ADME, human
Conditions: human, human liver microsomes, 1 μM compound, 1 mg/mL human liver microsomes, 1 mM NADPH; read-out: T½ of HLM
Experimental: The compound to be tested with final concentration of 1 μM was incubated with 1 mg/mL of human liver microsomes and 1 mM of NADPH, and a group without NADPH was set as a negative control. The reaction mixture was quenched with methanol at five time points of 0, 5, 15, 30 and 60 min, respectively, then centrifuged at 2500 rpm for 20 min to precipitate proteins, and the resulting supernatant was analyzed by LC-MS/MS. […]
experimental.endpoint: half-life at 1 μM (h)

Reference set (3 entries):
1) [2H]c1c(C)c([2H])c(Oc2cc3c(cc2NC(=O)c2cc(OC)c(OC)c(OC)c2Cl)NC(=O)[C@H](CC(=O)N(CC)CC)NC3=O)c([2H])c1C [Compound 24] : 0.407
2) [2H]C([2H])([2H])C([2H])([2H])N(C(=O)C[C@@H]1NC(=O)c2cc(Oc3cc(C)cc(C)c3)c(NC(=O)c3cc(OC)c(OC)c(OC)c3Cl)cc2NC1=O)C([2H])([2H])C([2H])([2H])[2H] [Compound 8] : 0.843
3) [2H]C([2H])([2H])Oc1cc(C(=O)Nc2cc3c(cc2Oc2cc(C)cc(C)c2)C(=O)N[C@@H](CC(=O)N(OC([2H])([2H])[2H])C([2H])([2H])[2H])C(=O)N3)c(Br)c(OC([2H])([2H])[2H])c1OC([2H])([2H])[2H] [Compound 37] : 1.5

1 = [2H]C([2H])([2H])Oc1cc(C(=O)Nc2cc3c(cc2Oc2cc(C)cc(C)c2)C(=O)N(C)[C@@H](CC(=O)N(C([2H])([2H])[2H])C([2H])([2H])[2H])C(=O)N3)c(Br)c(OC([2H])([2H])[2H])c1OC([2H])([2H])[2H] [Compound 14]
2 = [2H]C([2H])([2H])N1C(=O)c2cc(Oc3cc(C)cc(C)c3)c(NC(=O)c3cc(OC)c(OC)c(OC)c3Br)cc2NC(=O)[C@@H]1CC(=O)N(CC)CC [Compound 18]
(Q) Looking at recorded values for half-life at 1 μM, does 1 or 2 come in lower? Identify your pick by its label.
(A) 2
(2: 0.177 h, 1: 1.02 h)

a = [2H]C([2H])([2H])Oc1cc(C(=O)Nc2cc3c(cc2Oc2cc(C)cc(C)c2)C(=O)N[C@@H](CC(=O)N2CCC(F)(F)CC2)C(=O)N3)c(Cl)c(OC([2H])([2H])[2H])c1OC([2H])([2H])[2H] [Compound 10]
b = [2H]C([2H])([2H])Oc1cc(C(=O)Nc2cc3c(cc2Oc2cc(C)cc(C)c2)C(=O)N(C)[C@@H](CC(=O)N(C)OC)C(=O)N3)c(Cl)c(OC([2H])([2H])[2H])c1OC([2H])([2H])[2H] [Compound 36]
(Q) I would appreciate it if you could say which entry, a or b , has the lower half-life at 1 μM value. // caller expects the label of the chosen entry
(A) a
